# Assay: Solubility of compound by pH 2
# Format: physicochemical
# Experimental context: buffer
Listed molecules paired with reported solubility

Inquiry: Consider the molecule "CC(C)(O)CNC(=O)c1nc(CC2CCCCC2)c(-c2ccc(S(=O)(=O)NC(C)(C)C)c3ccccc23)s1" and give its measured solubility.
Reply text: < 4 µM

Inquiry: Which measured solubility value corresponds to "CC[C@H](NS(=O)(=O)c1ccc(-c2sc(-c3nnc(CC(C)(C)O)o3)nc2C(=O)N2CCC(F)CC2)c(Cl)c1Cl)C(F)(F)F" ?
Reply text: 41 µM

Inquiry: Given "CC[C@H](NS(=O)(=O)c1ccc(-c2sc(CC(C)(C)C(=O)O)nc2CC2CCC2)c(C(F)F)c1F)C(F)(F)F" , state its recorded solubility.
Reply text: < 4 µM

Inquiry: Request the reported solubility associated with "C[C@H](NS(=O)(=O)c1ccc(-c2sc(-c3cc(CC(C)(C)C(=O)O)on3)nc2CC2CCC2)c(Cl)c1Cl)C(F)(F)F"
Reply text: < 4 µM
